- System name: T1, recombinant human SOST (rhSOST) (human, UniProt Q9BQB4 24-213)
- T1 construct: Treated as one molecule; also called recombinant human SOST protein; human sclerostin
- T1 sequence: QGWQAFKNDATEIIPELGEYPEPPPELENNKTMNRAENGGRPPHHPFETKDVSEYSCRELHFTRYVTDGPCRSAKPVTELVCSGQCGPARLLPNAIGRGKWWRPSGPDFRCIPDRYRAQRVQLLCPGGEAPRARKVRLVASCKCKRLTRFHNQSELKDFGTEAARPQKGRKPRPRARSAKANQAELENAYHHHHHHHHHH
- Assay procedure: SPR Biacore T200, IgG captured via anti-human Fc, rhSOST analyte, 37 C
Exercise: for every item that follows, state its recorded kon.
Numbers only, in M⁻¹ s⁻¹.

Q: Annotate the binder DM32 (antibody, V domains shown, also called mH11/mL2) VH: EVQLLESGGGLVQPGGSLRLSCAASGFTFSDYWMQWVRQAPGKGLEWVGAIYPGDGDTRYNQKFKDRFTISRDNSKNTLYLQMNSLRAEDTAVYYCARSMDYWGQGTLVTVSS VL: DIVMTQSPDSLAVSLGERATINCRASKTVDSYGNSFMHWFQQKPGQPPKLLIYHSSNLESGVPDRFSGSGSGTDFTLTISSLQAEDVAVYYCLQTIEDPYTFGQGTKLEIK with its measured kon.
Result: 7.75e+06

---
Q: Annotate the binder DM33 (antibody, V domains shown, also called mH11/mL15) VH: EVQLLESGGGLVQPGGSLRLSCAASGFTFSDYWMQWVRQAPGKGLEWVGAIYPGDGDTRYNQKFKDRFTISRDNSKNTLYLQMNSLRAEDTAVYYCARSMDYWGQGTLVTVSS VL: DIVMTQSPDSLAVSLGERATINCRASKTVDSYGNSFMHWYQQKPGQPPKLLIYHSSNLESGVPDRFSGSGSGTDFTLTISSLQAEDVAVYYCLQTIEHPYTFGQGTKLEIK with its measured kon.
Result: 6.03e+06
